Target: T1, human CD40L, membrane-bound on cells (human, UniProt P29965 1-261)
T1 sequence: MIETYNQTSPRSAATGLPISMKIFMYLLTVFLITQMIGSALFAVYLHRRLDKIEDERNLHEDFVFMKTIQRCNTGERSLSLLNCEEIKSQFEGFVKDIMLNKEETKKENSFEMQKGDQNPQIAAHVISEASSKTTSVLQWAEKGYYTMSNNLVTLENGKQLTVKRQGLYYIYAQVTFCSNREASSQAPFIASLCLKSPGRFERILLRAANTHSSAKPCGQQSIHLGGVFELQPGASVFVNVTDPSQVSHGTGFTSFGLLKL
Test: cell-based or functional assay
Cut-off 200 nM on CHO-hCD40L-driven DC Activation IL-12 EC50, inclusive. At or above means met; below means not met.

Here are 3 binders together with their reported answers.
BMS2h-437-4 (other) VL: DIQMTQSPSSLSASVGDRVTITCRASTPIGTMLDWYQQKPGKAPKLLIGHSSWLQSGVPSRFSGCGSGTDFTLTISSLQPEDFATYYCGQHVRPPATFGQGTKVEIKR ... met
BMS2h-572-635 (other) VH: EVQLLESGGGLVQPGGSLRLSCAASGFTFNWELMGWARQAPGKGLEWVSGIEGPGDVTYYADSVKGRFTISRDNSKNTLYLQMNSLRAEDTAVYYCVKVGKDSKSDYRGQGTLVTVSS ... not met
BMS2h-572-633 (other, VH dAb, monovalent) VH: EVQLLESGGGLVQPGGSLRLSCAASGFTFNWELMGWARQAPGKGLEWVSGIEGPGDVTYYADSVKGRFTISRDNSKNTLYLQMNSLRAEDTAVYYCVKVGKDAKSDYRGQGTLVTVSS ... not met

Decide: CHO-hCD40L-driven DC Activation IL-12 EC50 of BMS2h-572-604 (other) VH: EVQLLESGGGLVQPGGSLRLSCAASGFTFKWQLMGWVRQAPGKGLEWVSGIEGPGDVTYYADSVKGRFTISRDNSKNTLYLQMNSLRAEDTAVYYCVKVGKESNSDYRGQGTLVTVSS >= 200 nM?
met

Does the binder BMS2h-572-608 (other) VH: EVQLLESGGGLVQPGGSLRLSCAASGFTFNWELMGWARQAPGKGLEWVSGIEGPGDVTYYADSVKGRFTISRDNSKNTLYLQMNSLRAEDTAVYYCVKVGKESNSDYRGQGTLVTVSS have recorded CHO-hCD40L-driven DC Activation IL-12 EC50 that is 200 nM or more?
not met

Is it the case that BMS2h-572-630 (other) VH: EVQLLESGGGLVQPGGSLRLSCAASGFTFKWQLMGWVRQAPGKGLEWVSGIEGPGDVTYYADSVKGRFTISRDNSKNTLYLQMNSLRAEDTAVYYCVKVGKDAKSDYRGQGTLVTVSS has CHO-hCD40L-driven DC Activation IL-12 EC50 reaching or exceeding 200 nM?
met

Item BMS2h-572-9 (other) VH: EVQLLESGGGLVQPGGSLRLSCAASGFTFNWQLMGWVRQAPGKGLEWVSGIEGPGDVTYYADSVKGRFTISRDNSKNTLYLQMNSLRAEDTAVYYCAKVGKESNSDYRGQGTLVTVSS with CHO-hCD40L-driven DC Activation IL-12 EC50 of 200 nM or above?
met
